- protocol-summary: logP by HPLC on reversed-phase column (C18), acidic range
- Type: physicochemical
- measurement-setup: formic acid in water/acetonitrile
chromatographic logP listing for selected compounds.
measured-attribute: chromatographic logP

> print(dat)
                                smiles.text    measured.attribute  numeric.result
1  CCS(=O)(=O)c1c(-c2nc3cc(C(F)(F)F)cnc3n2C)nc2cc(NC(=S)OCC3CC3)ccn12  chromatographic logP            3.76
2  CCS(=O)(=O)c1c(-c2nc3cc(C(F)(F)F)cnc3n2C)nc2cc(NC(=O)OC3(C)CC3)ccn12  chromatographic logP            3.14
